B1: CDKL4 (parent)
chain: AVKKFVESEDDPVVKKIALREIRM

Variants of: B1
Assay: protein stability index of a GFP-peptide fusion (GPS, HEK-293T) (PSI 1-6); higher = more stable;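 note: lentivirally expressed fusions sorted by FACS into six bins by GFP to DsRed ratio, PSI derived from sequencing read proportions per bin multiplied by bin number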
Conditions: c terminus: a fixed tail appended
Returns satisfied if the recorded protein stability index is greater than or equal to 3, and not satisfied otherwise.

Study these solved cases before continuing.
{"mutantCode": "V14K", "className": "not satisfied"}
{"mutantCode": "R23K", "className": "satisfied"}
{"mutantCode": "K3H", "className": "satisfied"}
{"mutantCode": "S8Q", "className": "satisfied"}
{"mutantCode": "A18H", "className": "not satisfied"}
{"mutantCode": "I22C", "className": "satisfied"}
{"mutantCode": "D11W", "className": "satisfied"}
{"mutantCode": "R20L", "className": "not satisfied"}
{"mutantCode": "K16Q", "className": "satisfied"}
{"mutantCode": "D11A", "className": "not satisfied"}

Enquiry: Given the entry V6Q , answer whether its protein stability index meets or surpasses 3.
Return: satisfied

Enquiry: Is the recorded value of protein stability index equal to or greater than 3 for this variant? S8T
Return: satisfied

Enquiry: Dear colleague, could you confirm whether R20E has protein stability index at or above 3?
Return: satisfied

Enquiry: Textbook exercise: given the entry A18W , state whether its protein stability index is greater than or equal to 3.
Return: not satisfied

Enquiry: In plain terms: is recorded protein stability index at least 3 for V14Q ?
Return: satisfied

Enquiry: Entry K4W : is its protein stability index no less than 3?
Return: not satisfied

Enquiry: Confirm if protein stability index reported for the variant I17M is 3 or above.
Return: not satisfied

Enquiry: Determine whether this variant has protein stability index no lower than 3: E9Q
Return: satisfied

Enquiry: Hi, just wondering whether K3G shows protein stability index of 3 or higher.
Return: not satisfied

Enquiry: Exam item: decide whether the reported protein stability index for K15I is at least 3.
Return: not satisfied
